- experimental.target: baculovirus-expressed ALK (Homo sapiens, UniProt Q9UM73)
- Construct: host or cells: baculovirus expression system
- Sequence (Q9UM73 19-1620): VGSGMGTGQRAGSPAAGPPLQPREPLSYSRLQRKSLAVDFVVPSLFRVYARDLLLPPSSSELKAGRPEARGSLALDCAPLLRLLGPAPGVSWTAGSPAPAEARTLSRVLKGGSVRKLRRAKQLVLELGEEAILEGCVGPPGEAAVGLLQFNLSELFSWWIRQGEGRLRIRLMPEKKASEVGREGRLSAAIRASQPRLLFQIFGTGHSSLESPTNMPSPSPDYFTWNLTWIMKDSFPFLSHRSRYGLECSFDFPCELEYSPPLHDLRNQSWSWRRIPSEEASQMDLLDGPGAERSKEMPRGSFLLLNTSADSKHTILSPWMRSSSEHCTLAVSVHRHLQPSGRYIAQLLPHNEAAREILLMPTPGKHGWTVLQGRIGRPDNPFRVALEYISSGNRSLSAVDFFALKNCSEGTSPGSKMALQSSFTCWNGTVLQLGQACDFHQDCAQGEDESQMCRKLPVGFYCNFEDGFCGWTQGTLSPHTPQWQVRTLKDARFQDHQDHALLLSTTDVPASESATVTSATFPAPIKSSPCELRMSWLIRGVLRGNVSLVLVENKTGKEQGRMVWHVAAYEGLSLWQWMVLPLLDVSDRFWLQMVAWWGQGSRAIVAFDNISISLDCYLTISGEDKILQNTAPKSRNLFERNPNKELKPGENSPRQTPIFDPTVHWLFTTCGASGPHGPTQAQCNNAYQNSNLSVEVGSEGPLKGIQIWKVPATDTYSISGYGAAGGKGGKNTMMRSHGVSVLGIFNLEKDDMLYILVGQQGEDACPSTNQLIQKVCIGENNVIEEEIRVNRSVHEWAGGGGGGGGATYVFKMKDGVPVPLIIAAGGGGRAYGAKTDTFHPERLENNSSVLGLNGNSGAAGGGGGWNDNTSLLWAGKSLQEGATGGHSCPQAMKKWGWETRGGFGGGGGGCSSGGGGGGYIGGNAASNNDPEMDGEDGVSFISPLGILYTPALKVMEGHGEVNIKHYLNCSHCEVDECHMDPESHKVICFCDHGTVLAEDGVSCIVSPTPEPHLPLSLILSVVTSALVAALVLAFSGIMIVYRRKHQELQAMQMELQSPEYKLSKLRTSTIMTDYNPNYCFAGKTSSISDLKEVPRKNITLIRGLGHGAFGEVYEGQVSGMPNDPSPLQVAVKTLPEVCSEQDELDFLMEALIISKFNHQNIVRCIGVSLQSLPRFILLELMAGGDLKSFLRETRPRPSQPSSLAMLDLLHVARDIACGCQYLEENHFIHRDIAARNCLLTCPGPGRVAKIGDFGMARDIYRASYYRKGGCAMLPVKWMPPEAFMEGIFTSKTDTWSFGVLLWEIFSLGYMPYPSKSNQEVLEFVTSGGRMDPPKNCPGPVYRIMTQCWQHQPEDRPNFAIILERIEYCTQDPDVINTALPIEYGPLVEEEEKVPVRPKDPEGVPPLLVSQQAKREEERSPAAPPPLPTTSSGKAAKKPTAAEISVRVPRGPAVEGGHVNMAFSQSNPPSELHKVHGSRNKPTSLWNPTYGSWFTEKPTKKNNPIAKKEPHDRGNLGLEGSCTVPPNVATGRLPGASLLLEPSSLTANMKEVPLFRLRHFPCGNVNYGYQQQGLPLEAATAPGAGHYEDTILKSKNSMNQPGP
- test.summary: ALK Kinase Assay (ELISA-type, time-resolved fluorescence)
- Format: biochemical
- assay.setup: ALK kinase inhibition, 1 μM ATP; read-out: ALK Activity
pIC50: −log10 of the molar value.
# pIC50 listing for each entry below

Examples with answers:
[
  {
    "compound": "C#CCNC(=O)c1cccc(F)c1Nc1nc(Nc2ccc3c(c2)N(CCN2CCCC2)CCCC3(C)C)ncc1Cl",
    "pIC50": "> 7.00"
  },
  {
    "compound": "CNC(=O)c1cccc(F)c1Nc1nc(Nc2ccc3c(c2)NCCCC3(C)C)ncc1Cl",
    "pIC50": "6.00 to 7.00"
  },
  {
    "compound": "O=C1CCCc2ccc(Nc3ncc(Cl)c(Nc4ccccc4S(=O)(=O)N4CCC(O)C4)n3)cc2N1 (stereo not shown)",
    "pIC50": "> 7.00"
  },
  {
    "compound": "COc1cc(N2CCOCC2)ccc1Nc1nc(Nc2ccc3c(c2)N(C(C)C)C(=O)CCC3(C)C)ncc1Cl",
    "pIC50": "> 7.00"
  },
  {
    "compound": "CNC(=O)c1ccccc1N(C)c1nc(Nc2ccc3c(c2)CC(=O)N(C)CC3)ncc1F",
    "pIC50": "5.00 to 6.00"
  }
]

Bench note, baculovirus-expressed ALK (Homo sapiens, UniProt Q9UM73): CNC(=O)c1cccc(F)c1Nc1nc(Nc2ccc3c(c2)OCCCN3C(=O)OC2CCCN(C)C2)ncc1Cl (stereo not shown) , pIC50 reads > 7.00

# lookup: "CN([C@@H]1CCCC[C@H]1Nc1nc(Nc2ccc3c(c2)C(C)(C)CCC(=O)N3)ncc1Cl)S(C)(=O)=O" on baculovirus-expressed ALK (Homo sapiens, UniProt Q9UM73), pIC50 = > 7.00

###

- experimental.target: baculovirus-expressed ALK (Homo sapiens, UniProt Q9UM73)
- Construct: host or cells: baculovirus expression system
- test.summary: ALK Kinase Assay (ELISA-type, time-resolved fluorescence)
- Type: biochemical
- assay.setup: ALK kinase inhibition, 1 μM ATP; read-out: ALK Activity
endpoint.name: IC50

Illustrative cases are given below, each with its answer.
[
  {
    "molecule": "CNC(=O)c1cccc(F)c1Nc1nc(Nc2ccc3c(c2)OCCCN3CCN2CCCC2)ncc1Cl",
    "IC50": "< 100 nM"
  },
  {
    "molecule": "CNC(=O)c1ccccc1Nc1nc(Nc2cc3c(cc2OC)N(C)C(=O)OCC3)ncc1Br",
    "IC50": "< 100 nM"
  },
  {
    "molecule": "CNC(=O)c1ccccc1Nc1nc(Nc2ccc3c(c2)NC(=O)CN(CCOC)C3)ncc1Cl",
    "IC50": "< 100 nM"
  }
]

According to the records, this molecule "COCCN1C(=O)CCC(C)(C)c2ccc(Nc3ncc(Cl)c(Nc4c(F)cccc4OCC#N)n3)cc21" displays IC50 of < 100 nM

The reported IC50 of the molecule "CNC(=O)c1cccc(F)c1Nc1nc(Nc2ccc3c(c2)OCCCN3C(C)=O)ncc1Cl" was 100 to 1000 nM

In plain terms, CNC(=O)c1cccc(Cl)c1Nc1nc(Nc2ccc3c(c2)CCC(N2CCC(N4CCN(C)CC4)CC2)CC3)ncc1Cl (stereo not shown) has a documented IC50 of 100 to 1000 nM

Sample "CCN1C(=O)CCC(C)(C)c2ccc(Nc3ncc(Cl)c(Nc4ccc(N5CCOCC5)cc4OC)n3)cc21" ; IC50 observed: < 100 nM

###

- experimental.target: baculovirus-expressed ALK (Homo sapiens, UniProt Q9UM73)
- Construct: host or cells: baculovirus expression system
- test.summary: ALK Kinase Assay (ELISA-type, time-resolved fluorescence)
- Assay type: biochemical
- assay.setup: ALK kinase inhibition, 1 μM ATP (Km level); read-out: ALK Activity
endpoint.name: IC50

Example entries begin here.
[
  {
    "molecule": "COCCN1CCc2ccc(Nc3ncc(Cl)c(N[C@@H]4CCCC[C@H]4NS(C)(=O)=O)n3)cc2CC1",
    "endpoint.name": "IC50",
    "result": "< 100 nM"
  },
  {
    "molecule": "CNS(=O)(=O)c1ccccc1Nc1nc(Nc2ccc3c(c2)CCCC(=O)N3CC(=O)OC)ncc1Cl",
    "endpoint.name": "IC50",
    "result": "< 100 nM"
  },
  {
    "molecule": "CNC(=O)c1ccccc1Nc1nc(Nc2ccc3c(c2)C2CCC(C3)N2S(C)(=O)=O)ncc1Cl (racemic)",
    "endpoint.name": "IC50",
    "result": "< 100 nM"
  },
  {
    "molecule": "CNC(=O)c1ccccc1Nc1nc(Nc2ccc3c(c2)CCN(C(=O)N(C)C)CC3)ncc1Cl",
    "endpoint.name": "IC50",
    "result": "< 100 nM"
  },
  {
    "molecule": "CCOCn1ccnc1-c1ccccc1Nc1nc(Nc2ccc3c(c2)CCN(CCOC)CC3)ncc1Cl",
    "endpoint.name": "IC50",
    "result": "< 100 nM"
  }
]

// field: IC50; key: "CN1CCN(CC2CC2)Cc2ccc(Nc3ncc(Cl)c(N[C@@H]4CCCC[C@H]4NS(C)(=O)=O)n3)cc21" ; value = < 100 nM

IC50 for "CNC(=O)c1cccc(C)c1Nc1nc(Nc2ccc3c(c2)N(CCOC)C(=O)CCC3)ncc1Cl" is 1000 to 10000 nM

###

- experimental.target: c-Met (cytoplasmic domain) (Homo sapiens)
- Construct: 10 ng/mL c-Met (cytoplasmic domain, Invitrogen Corporation #PV3143); purchased Invitrogen Corporation PV3143
- Sequence (P08581 956-1390 limits assumed): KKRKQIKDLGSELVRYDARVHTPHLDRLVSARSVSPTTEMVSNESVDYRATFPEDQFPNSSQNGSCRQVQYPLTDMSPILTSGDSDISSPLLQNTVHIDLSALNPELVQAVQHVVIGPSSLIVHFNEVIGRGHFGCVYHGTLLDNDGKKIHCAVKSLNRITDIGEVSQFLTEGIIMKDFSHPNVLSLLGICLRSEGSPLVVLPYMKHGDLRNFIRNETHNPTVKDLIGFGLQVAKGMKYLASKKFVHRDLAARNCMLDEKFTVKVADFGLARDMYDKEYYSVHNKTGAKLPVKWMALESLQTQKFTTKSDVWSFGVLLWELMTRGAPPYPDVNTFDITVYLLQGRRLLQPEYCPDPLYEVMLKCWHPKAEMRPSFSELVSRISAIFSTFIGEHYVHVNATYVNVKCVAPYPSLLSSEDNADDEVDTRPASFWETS
- test.summary: c-Met Kinase Assay (same methods as for ALK, with modifications)
- Assay type: biochemical
- assay.setup: c-Met kinase inhibition, 1 μM ATP (Km level); read-out: cMet Activity
endpoint.name: IC50

[
  {
    "compound": "CN1CCN(C)c2cccc(Nc3ncc(Cl)c(Nc4ccccc4NS(C)(=O)=O)n3)c2C1=O",
    "IC50": "> 10 µM"
  },
  {
    "compound": "CNC(=O)c1ccccc1Nc1nc(Nc2ccc3c(c2)CCN(C(=O)C(F)(F)F)CC3)ncc1Cl",
    "IC50": "< 0.1 µM"
  },
  {
    "compound": "CNS(=O)(=O)c1ccccc1Nc1nc(Nc2ccc3c(c2)C2CC3CN(CCOC)C2)ncc1Cl (stereo not shown)",
    "IC50": "1 to 10 µM"
  },
  {
    "compound": "CCN1CCc2ccc(Nc3ncc(C)c(Nc4ccccc4C(=O)NC)n3)cc2CC1",
    "IC50": "< 0.1 µM"
  },
  {
    "compound": "COCCN1CCc2ccc(Nc3ncc(Cl)c(NC(C)(C)CNS(C)(=O)=O)n3)cc2CC1",
    "IC50": "> 10 µM"
  },
  {
    "compound": "CC(C)N1C2CCC1c1cc(Nc3ncc(Cl)c(N[C@@H]4CCCC[C@H]4NS(C)(=O)=O)n3)ccc1C2 (stereo partly shown)",
    "IC50": "0.1 to 1 µM"
  },
  {
    "compound": "CNC(=O)c1ccccc1Nc1nc(Nc2ccc3c(c2)CCN(C(C)C)CC3)ncc1Cl",
    "IC50": "< 0.1 µM"
  },
  {
    "compound": "COCCN1CCc2cc(Nc3ncc(Cl)c(Nc4cc(Cl)ccc4OC)n3)c(OC)cc2CC1",
    "IC50": "> 10 µM"
  },
  {
    "compound": "CCN1CC2CC(C1)c1cc(Nc3ncc(Cl)c(NC4C5C=CC(C5)C4C(N)=O)n3)ccc12 (stereo not shown)",
    "IC50": "1 to 10 µM"
  },
  {
    "compound": "COCCN1C2CCC1c1cc(Nc3ncc(Cl)c(Nc4ccccc4NS(C)(=O)=O)n3)ccc1C2 (stereo not shown)",
    "IC50": "0.1 to 1 µM"
  }
]

For reference, reported IC50 for "C#CCN1CCN(C)c2cc(Nc3ncc(Cl)c(N[C@@H]4CCCC[C@H]4NS(C)(=O)=O)n3)ccc2C1" stands at 1 to 10 µM

Form: compound = "CCN1CCc2ccc(Nc3ncc(Cl)c(Nc4ccccc4C(=O)NC)n3)cc2CC1" ; IC50 = < 0.1 µM

Given item C#CCN1CCc2ccc(Nc3ncc(Cl)c(N[C@H]4[C@@H](C(N)=O)[C@@H]5C=C[C@H]4C5)n3)cc2CC1 (relative stereo) , the value recorded as its IC50 is 0.1 to 1 µM

Just so you know, measured IC50 for "CCOCn1ccnc1-c1ccccc1Nc1nc(Nc2ccc3c(c2)CCN(CCOC)CC3)ncc1Cl" came out at 1 to 10 µM

Value of IC50 reported for the compound "CNC(=O)c1ccccc1Nc1nc(Nc2ccc3c(c2)N(C)C(=O)CCC3)ncc1Cl" is < 0.1 µM

// "CNS(=O)(=O)c1ccccc1Nc1nc(Nc2ccc3c(c2)COCCN3C)ncc1Cl" : IC50 value = < 0.1 µM
